Sourced from paper PMC7770080

assay-system: CYP3A4 (Homo sapiens, UniProt P08684)
Sequence (P08684 whole entry): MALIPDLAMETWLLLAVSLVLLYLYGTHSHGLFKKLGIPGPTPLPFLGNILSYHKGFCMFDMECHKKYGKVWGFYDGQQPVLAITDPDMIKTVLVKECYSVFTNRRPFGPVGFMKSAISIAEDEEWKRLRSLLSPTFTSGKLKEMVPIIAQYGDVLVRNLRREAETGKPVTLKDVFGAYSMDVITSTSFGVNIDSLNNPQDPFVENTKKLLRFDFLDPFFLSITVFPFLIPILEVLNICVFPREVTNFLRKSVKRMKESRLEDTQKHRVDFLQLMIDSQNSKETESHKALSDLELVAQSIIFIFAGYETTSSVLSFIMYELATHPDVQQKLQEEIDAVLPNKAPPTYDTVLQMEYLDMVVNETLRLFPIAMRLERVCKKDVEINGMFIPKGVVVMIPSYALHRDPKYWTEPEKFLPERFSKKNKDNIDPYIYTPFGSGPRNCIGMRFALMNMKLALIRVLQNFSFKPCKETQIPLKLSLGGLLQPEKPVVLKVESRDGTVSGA
test-method-notes: Vivid CYP3A4 Green screening assay with P450 BACULOSOMES
metric: pIC50
Scale for pIC50: -log10 of concentration given in mol/L; no unit attached.

So what does the record say about pIC50 for Nc1cccc(S(=O)(=O)O)c1 ? 1.76

###

assay-system: CYP3A4 (Homo sapiens)
test-method-notes: Vivid CYP3A4 Green screening assay with P450 BACULOSOMES
condition-context: read-out: IC50 on CYP3A4 activity; assuming inhibition of CYP3A4; triplicate
metric: pIC50
Scale for pIC50: -log10 of concentration given in mol/L; no unit attached.

So what does the record say about pIC50 for C[C@H](CCC(=O)Nc1cccc(S(=O)(=O)O)c1)[C@H]1CC[C@H]2[C@@H]3[C@H](O)C[C@@H]4C[C@H](O)CC[C@]4(C)[C@H]3C[C@H](O)[C@]12C [CamSA] ? 3.21
